Listed next: entries and their corresponding pIC50.
Molecular target: Axl (Homo sapiens, UniProt P30530)
Construct: endogenous in cells; host or cells: HeLa cells
Sequence (P30530 26-894): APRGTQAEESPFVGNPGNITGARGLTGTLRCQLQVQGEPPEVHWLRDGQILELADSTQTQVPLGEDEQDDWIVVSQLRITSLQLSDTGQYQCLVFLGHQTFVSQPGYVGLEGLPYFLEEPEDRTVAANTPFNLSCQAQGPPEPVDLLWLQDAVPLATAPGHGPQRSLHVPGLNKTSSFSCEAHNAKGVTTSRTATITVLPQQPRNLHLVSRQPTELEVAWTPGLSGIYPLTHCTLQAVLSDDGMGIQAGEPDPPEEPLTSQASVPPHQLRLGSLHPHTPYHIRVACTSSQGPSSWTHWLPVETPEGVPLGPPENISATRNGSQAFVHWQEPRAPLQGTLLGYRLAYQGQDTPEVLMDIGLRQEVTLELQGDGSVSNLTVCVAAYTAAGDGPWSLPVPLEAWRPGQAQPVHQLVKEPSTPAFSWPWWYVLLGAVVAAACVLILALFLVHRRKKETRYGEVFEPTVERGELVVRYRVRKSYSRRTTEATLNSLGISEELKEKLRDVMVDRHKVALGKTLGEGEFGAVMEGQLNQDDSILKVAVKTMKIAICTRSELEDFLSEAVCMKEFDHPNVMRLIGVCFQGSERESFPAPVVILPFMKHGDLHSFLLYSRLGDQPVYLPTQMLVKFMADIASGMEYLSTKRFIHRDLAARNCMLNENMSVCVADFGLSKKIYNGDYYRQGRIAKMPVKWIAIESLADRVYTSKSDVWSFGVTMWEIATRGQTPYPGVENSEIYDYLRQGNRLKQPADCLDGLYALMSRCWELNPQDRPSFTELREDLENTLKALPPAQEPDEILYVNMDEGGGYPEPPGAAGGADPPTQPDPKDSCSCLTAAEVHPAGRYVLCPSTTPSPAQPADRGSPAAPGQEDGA
Assay: Phospho-Akt in-cell Western assay (inhibition of Axl activity)
Type: cell-based
Settings: inhibition of Axl activity, Table 1
pIC50: −log10 of the molar value.

Previously resolved entries follow.
[[record]]
molecule = "Nc1nc(Nc2ccc3c(c2)OCCO3)nn1C(=O)c1ccc([N+](=O)[O-])cc1 [compound 240]"
attribute_measured = "pIC50"
endpoint_result = "< 4.70"

[[record]]
molecule = "Cc1ccc(C(=O)n2nc(Nc3cccc(F)c3)nc2N)cc1 [compound 124]"
attribute_measured = "pIC50"
endpoint_result = "4.70 to 5.00"

[[record]]
molecule = "Nc1nc(Nc2ccc(N3CCOCC3)cc2)nn1C(=O)c1cccc([N+](=O)[O-])c1 [compound 72]"
attribute_measured = "pIC50"
endpoint_result = "5.00 to 6.00"


Request: Which value of pIC50 has been reported for Cc1cccc(C(=O)n2nc(Nc3cccc(O)c3)nc2N)c1 [(Ia-7)] in the records?
Result: 5.00 to 6.00

====

target: Axl (Homo sapiens, UniProt P30530); construct: endogenous in cells; host or cells: HeLa cells; assay: Phospho-Akt in-cell Western assay (inhibition of Axl activity); type: cell-based; conditions: inhibition of Axl activity, phospho-Akt in-cell Western assay; Table 1
pIC50: −log10 of the molar value.
attribute measured: pIC50

Request: Look up pIC50 for this molecule: Nc1nc(Nc2ccc(OCCN3CCCC3)cc2)nn1C(=O)c1ccc(-c2csnn2)cc1 [compound 280]
Result: > 6.00

Request: // lookup pIC50 for CN(c1ccc(OCCN2CCCC2)cc1)c1nc(N)n(C(=O)c2ccc(OC(C)(C)C)cc2)n1 [compound 272]
Result: < 4.70

Request: Which measured pIC50 value corresponds to Nc1nc(Nc2ccc(OCCN3CCCC3)c(Cl)c2)nn1C(=O)c1cc(Cl)cc(Cl)c1 [compound 402] ?
Result: < 4.70

Request: Give the measured pIC50 of CC(C)(C)Oc1cccc(C(=O)n2nc(Nc3ccc(OCCN4CCCC4)cc3)nc2N)c1 [compound #18] .
Result: > 6.00

Request: Consider the molecule CN(C)c1ccc(C(=O)n2nc(Nc3ccc(OCCN4CCCCC4)cc3)nc2N)cc1 [compound #2] and give its measured pIC50.
Result: > 6.00

Request: # query: pIC50 of entry Nc1nc(Nc2ccc(OCCN3CCCC3)cc2)nn1C(=O)c1ccc(-c2ccsc2)cc1 [compound 314]
Result: > 6.00

Request: // query pIC50 value for entry COc1cc(Nc2nc(N)n(C(=O)c3ccc(-c4csnn4)cc3)n2)ccc1OCCN1CCCC1 [compound 319]
Result: > 6.00

Request: I have this molecule here, CN(C)c1ccc(C(=O)n2nc(Nc3ccc(OCCn4ccnc4)cc3)nc2N)cc1 [compound 373] , and I need its recorded pIC50.
Result: > 6.00

Request: Looking for the measured pIC50 of Nc1nc(Nc2ccc(OCCN3CCCC3)cc2)nn1C(=O)c1c(F)cccc1F [compound 289] , can you help?
Result: < 4.70

Request: Item under review: CC(C)(C)Oc1ccc(C(=O)n2nc(Nc3ccc(OCCN4CCCC4=O)cc3)nc2N)cc1 [compound 342] . Reported pIC50?
Result: > 6.00

====

Reported IC50 values for a set of compounds
target: Axl (Homo sapiens, UniProt P30530); construct: endogenous in cells; host or cells: HeLa cells; test: Phospho-Akt in-cell Western assay (inhibition of Axl activity); assay type: cell-based; conditions: Table 5; Hela cells, Axl antibody cross-linking stimulation, phospho-Akt chemiluminescence

[[record]]
compound = "Cc1cccc(C(=O)n2nc(Nc3ccc4ncccc4c3)nc2N)c1"
attribute_measured = "IC50"
endpoint_result = "1 to 10 µM"

[[record]]
compound = "Cc1cccc(C(=O)n2nc(Nc3nc4ccccc4s3)nc2N)c1"
attribute_measured = "IC50"
endpoint_result = "> 20 µM"

[[record]]
compound = "CNCc1cc2cc(Nc3nc(N)n(C(=O)c4cccc(C)c4)n3)ccc2o1"
attribute_measured = "IC50"
endpoint_result = "< 1 µM"


Request: Entry under review: Cc1cccc(C(=O)n2nc(Nc3ccc4oc(CO)cc4c3)nc2N)c1 . Reported IC50?
Result: 1 to 10 µM

Request: Which IC50 value belongs to Cc1cccc(C(=O)n2nc(Nc3ccc4[nH]ccc4c3)nc2N)c1 ?
Result: 1 to 10 µM

Request: Entry under review: CS(=O)(=O)N1CCC(Nc2nc(N)n(C(=O)c3ccc(N4CCOCC4)cc3)n2)CC1 . Reported IC50?
Result: > 20 µM

Request: # lookup: IC50 of CC(C)(C)Oc1ccc(C(=O)n2nc(NC3CCN(S(C)(=O)=O)CC3)nc2N)cc1
Result: > 20 µM

Request: Query: IC50; subject: Cc1cccc(C(=O)n2nc(Nc3ccc4c(c3)NC(=O)CO4)nc2N)c1
Result: > 20 µM

Request: Which IC50 reading was recorded for the compound C=CCN(C)Cc1cc2cc(Nc3nc(N)n(C(=O)c4cccc(C)c4)n3)ccc2o1 ?
Result: 1 to 10 µM

Request: Look up IC50 for this compound: CCOC(=O)c1cc2cc(Nc3nc(N)n(C(=O)c4cccc(C)c4)n3)ccc2o1
Result: 1 to 10 µM

Request: Any idea what its IC50 is? The compound is CC(C)(C)OC(=O)NC1CCOc2ccc(Nc3nc(N)n(C(=O)c4ccc(OC(C)(C)C)cc4)n3)cc21 (stereo not shown)
Result: > 20 µM

Request: # get_value(readout='IC50', item= Cc1cccc(C(=O)n2nc(Nc3ccc4oc(C(=O)NCCO)cc4c3)nc2N)c1 )
Result: 1 to 10 µM

Request: Which IC50 reading was recorded for the compound Cc1cccc(C(=O)n2nc(Nc3ccc4c(c3)NCCO4)nc2N)c1 ?
Result: > 20 µM

====

molecular target: Axl (Homo sapiens, UniProt P30530); construct: endogenous in cells; host or cells: HeLa cells; experiment: Phospho-Akt in-cell Western assay (inhibition of Axl activity); format: cell-based; details: Table 5; Hela cells, Axl antibody cross-linking stimulation, phospho-Akt chemiluminescence
# IC50 per entry

Illustrative cases are given below, each with its answer.
[[record]]
compound = "CC(C)(C)Oc1cccc(C(=O)n2nc(NC3C4C=CC(C4)C3C(N)=O)nc2N)c1 (stereo not drawn)"
endpoint_result = "> 20 µM"

[[record]]
compound = "CN(C)c1ccc(C(=O)n2nc(NC3CCN(S(C)(=O)=O)CC3)nc2N)cc1"
endpoint_result = "> 20 µM"

[[record]]
compound = "Cc1cccc(C(=O)n2nc(Nc3cccnc3)nc2N)c1"
endpoint_result = "> 20 µM"

[[record]]
compound = "Cc1cccc(C(=O)n2nc(Nc3ccc4c(cnn4C)c3)nc2N)c1"
endpoint_result = "1 to 10 µM"

[[record]]
compound = "CN(C)c1cccc(C(=O)n2nc(NC3C4C=CC(C4)C3C(N)=O)nc2N)c1 (stereo not drawn)"
endpoint_result = "> 20 µM"


Field: next compound
Request: I have this compound here, Cc1cccc(C(=O)n2nc(Nc3ccc4sncc4c3)nc2N)c1 , and I need its recorded IC50.
Result: > 20 µM

Just for reference, patent US8389557B2 is where these values come from.
